Where do the numbers come from? From PubChem BioAssay.

Reported z-score values for the following compounds.
Assay: S. pombe growth modifiers, basal conditions – strain 972, OD600, 24 h, no modulator, primary screen (AID 1090);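 also: basal condition with compound alone and no growth modifier present; test concentration not given here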
Conditions: S. pombe 972 growth, higher = more signal, called active from +8 up or from −8 down
The source made the active and inactive calls.

The following compounds have reported results that may help.
COMPOUND	z-score
NCCCCCCNC(=O)[C@@H]1C[C@@H]2C(=O)N3CCC[C@H]3C(=O)N2[C@@H]1c1cccc(OCCO)c1	-0.822 (inactive)
C[N+](C)(C)CCCC[C@@H]1NC(=O)[C@@H]2C[C@H](C(=O)NCc3ccc(F)cc3)[C@H](c3ccc(O)cc3)N2C1=O	0.519 (inactive)
C=CCC(OC(C)=O)[C@@H]1[C@@H](N(Cc2ccc(-c3ccccc3)cc2)C(=O)c2cccc3ccccc23)c2cc(OCCCO)ccc2N1C(=O)Cc1ccc(OC)cc1 (some centres undefined)	0.0643 (inactive)

Then this compound:
Dear colleague, I am looking for the recorded z-score of the following compound: O=C1O[C@@H](c2ccccc2)[C@@H](c2ccccc2)N2[C@@H](c3ccccc3OCCO)[C@]3(C(=O)Nc4ccc(C#CCCO)cc43)[C@@H](C(=O)NC[C@H](O)c3ccccc3)[C@H]12 -1.71 (inactive)
